test: qHTS Assay for Lipid Storage Modulators in Drosophila S3 Cells; conditions: BODIPY lipid droplet fluorescence, 18-24 h, cells fed with added oleic acid; measured here: cell count max response;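 note: cells counted by Cell Tracker Red CMTPX staining in the red channel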
The whole screen tested about 320,000 compounds, of which about 2,100 (0.66%) were called active. Not shown: some 53% with an inconclusive outcome. Shown is part of a subset that was picked to be rich in actives.
Kind request: treat -20% as inclusive, so cell number change at -20% or higher is Yes, anything lower is No.

Is cell number change at least -20%? Consider COc1ccc(OC)c(CN2CCN(C(=O)c3ccc(S(=O)(=O)Nc4ccccc4F)cc3)CC2)c1
No

Is cell number change at least -20%? Consider COc1cccc(/C=N/NC(N)=S)c1OS(=O)(=O)c1ccccc1
Yes

Is cell number change at least -20%? Consider CCCCn1c(SCC(=O)N(C)C)nnc1-c1ccncc1
Yes

Is cell number change at least -20%? Consider COCCCNC(=O)c1ccccc1-c1cc(C)no1
Yes

Is cell number change at least -20%? Consider Cc1nc(SCC(=O)N(C)Cc2ccco2)c2c(C)c(C)sc2n1
No

Just for reference, PubChem BioAssay AID2685 is where these values come from.
